Documented pIC50 across a set of compounds
# targetOrTestSystem: UniProtKB O43614
# procedureText: Measurement of orexin receptor-binding ability ([125I]-OX-A, cell membranes, OX2)
# Parameters: expressed in transfected cells; host or cells: CHO cells (membrane preparation)
# conditionSet: membranes of recombinant CHO cells expressing OX2, 0.2 nM [125I]-OX-A; read-out: OX2 (IC50)
pIC50: −log10 of the molar value.

{"structureString": "COCc1nc(C)ncc1OC[C@@]1(c2cc(F)cc(OC)c2)C[C@H]1C(=O)Nc1ccc(F)cc1", "pIC50": 8.15}
{"structureString": "Cc1ncc(OC[C@@]2(c3ccccc3)C[C@H]2C(=O)Nc2ccc(F)c(C#N)c2)c(C)n1", "pIC50": 8.43}
{"structureString": "COCc1nc(C)ncc1OC[C@@]1(c2ccc(F)cc2)C[C@H]1C(=O)Nc1cccc(F)c1", "pIC50": 7.96}
{"structureString": "Cc1ncc(OC[C@@]2(c3cccc(C#N)c3)C[C@H]2C(=O)Nc2cc(C)c(F)cn2)c(C)n1", "pIC50": 8.40}

* * *

# targetOrTestSystem: OX1 (Homo sapiens)
# Sequence (O43613 whole entry): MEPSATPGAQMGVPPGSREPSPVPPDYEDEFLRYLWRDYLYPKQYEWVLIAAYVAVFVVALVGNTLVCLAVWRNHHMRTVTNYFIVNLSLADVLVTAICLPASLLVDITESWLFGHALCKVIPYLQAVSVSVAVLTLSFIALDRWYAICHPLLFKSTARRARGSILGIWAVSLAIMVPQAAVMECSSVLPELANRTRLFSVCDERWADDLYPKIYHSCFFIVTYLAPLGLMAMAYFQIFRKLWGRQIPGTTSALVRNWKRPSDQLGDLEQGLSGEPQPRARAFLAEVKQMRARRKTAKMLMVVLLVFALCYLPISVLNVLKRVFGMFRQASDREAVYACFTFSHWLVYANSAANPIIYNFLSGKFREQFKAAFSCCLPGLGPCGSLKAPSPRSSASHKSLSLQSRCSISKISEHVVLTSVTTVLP
# procedureText: Measurement of orexin receptor-binding ability ([125I]-OX-A, cell membranes, OX1)
# Parameters: expressed in transfected cells; host or cells: CHO cells (membrane preparation)
# conditionSet: membranes of recombinant CHO cells expressing OX1, 0.2 nM [125I]-OX-A; read-out: OX1 (IC50)

{"structureString": "COCc1nc(C)ncc1OC[C@@]1(c2cccc(F)c2)C[C@H]1C(=O)Nc1ccc(F)c(F)c1", "boundSign": "=", "IC50 / nM": 7}
{"structureString": "COc1cccc([C@]2(COc3cnc(C)nc3C)C[C@H]2C(=O)Nc2ccc(F)c(F)c2)c1", "boundSign": "=", "IC50 / nM": 11}
{"structureString": "Cc1ncc(OC[C@@]2(c3cccc(C#N)c3)C[C@H]2C(=O)Nc2cc(C)c(F)cn2)c(C)n1", "boundSign": "=", "IC50 / nM": 19}
{"structureString": "COCc1nc(C)ncc1OC[C@@]1(c2ccccc2)C[C@H]1C(=O)Nc1ccc(F)cn1", "boundSign": "=", "IC50 / nM": 9}
{"structureString": "COCc1nc(C)ncc1OC[C@@]1(c2cc(F)cc(F)c2)C[C@H]1C(=O)Nc1ccc(F)c(F)c1", "boundSign": "<", "IC50 / nM": 2}
{"structureString": "COCc1nc(C)ncc1OC[C@@]1(c2ccc(F)c(F)c2)C[C@H]1C(=O)Nc1cc(C)c(F)cn1", "boundSign": "=", "IC50 / nM": 4}
{"structureString": "CCc1nc(C)ncc1OC[C@@]1(c2cccc(F)c2)C[C@H]1C(=O)Nc1ccc(C#N)cn1", "boundSign": "=", "IC50 / nM": 6}

* * *

# Test system: mice (C57BL/6NCrlCrLj)
# procedureText: Sleep experiment (EEG/EMG) in mice
# Type: in vivo
# conditionSet: mice, oral administration, 10 mg/kg, difference to vehicle day, 3 hours
# Experimental: As a method for measuring the influence of the present compound on sleep time, electroencephalogram (EEG) and electromyogram (EMG) measurements were carried out in mice (C57BL/6NCrlCrLj). […] Mice received either oral administration of vehicle or test compound in vehicle, after which sleep/wake behavior of mice was recorded for 3 hours. […]

{"structureString": "Cc1ncc(OC[C@@]2(c3ccccc3)C[C@H]2C(=O)Nc2cc(C)c(F)cn2)c(C)n1", "Sleep extended time 10 mg/kg (min/3 hrs)": 23.6}
{"structureString": "Cc1ncc(OC[C@@]2(c3ccc(F)cc3)C[C@H]2C(=O)Nc2ccc(F)cn2)c(C)n1", "Sleep extended time 10 mg/kg (min/3 hrs)": 23.8}
{"structureString": "Cc1ncc(OC[C@@]2(c3cccc(F)c3)C[C@H]2C(=O)Nc2ccc(F)cn2)c(C)n1", "Sleep extended time 10 mg/kg (min/3 hrs)": 39.8}
{"structureString": "Cc1ncc(OC[C@@]2(c3ccc(Cl)cc3)C[C@H]2C(=O)Nc2ccc(F)cn2)c(C)n1", "Sleep extended time 10 mg/kg (min/3 hrs)": 10.0}
{"structureString": "Cc1ncc(OC[C@@]2(c3ccc(F)cc3)C[C@H]2C(=O)Nc2ccc(F)cc2)c(C)n1", "Sleep extended time 10 mg/kg (min/3 hrs)": 14.3}
{"structureString": "COc1cccc([C@]2(COc3cnc(C)nc3C)C[C@H]2C(=O)Nc2ccc(F)cn2)c1", "Sleep extended time 10 mg/kg (min/3 hrs)": 14.7}
{"structureString": "COCc1nc(C)ncc1OC[C@@]1(c2cccc(F)c2)C[C@H]1C(=O)Nc1ccc(F)cn1", "Sleep extended time 10 mg/kg (min/3 hrs)": 41.8}
{"structureString": "CCc1nc(C)ncc1OC[C@@]1(c2cccc(F)c2)C[C@H]1C(=O)Nc1ccccn1", "Sleep extended time 10 mg/kg (min/3 hrs)": 7.7}

* * *

# targetOrTestSystem: OX1 (Homo sapiens)
# procedureText: Measurement of orexin receptor-binding ability ([125I]-OX-A, cell membranes, OX1)
# Design: expressed in transfected cells; host or cells: CHO cells (membrane preparation)
# conditionSet: membranes of recombinant CHO cells expressing OX1, 0.2 nM [125I]-OX-A; read-out: OX1 (IC50)
pIC50: −log10 of the molar value.
Use 7 as the dividing line for pIC50, with the line itself on the t side and lower values as f.

{"compound": "COCc1ccnc(NC(=O)[C@@H]2C[C@@]2(COc2cnc(C)nc2C)c2ccccc2)c1 [Example 14]", "classLabel": "f"}
{"compound": "Cc1ncc(OC[C@@]2(c3ccccc3)C[C@H]2C(=O)Nc2ccc(F)c(Cl)c2)c(C)n1 [Example 32]", "classLabel": "t"}
{"compound": "COc1cc(NC(=O)[C@@H]2C[C@@]2(COc2cnc(C)nc2C)c2ccccc2)ccn1 [Example 72]", "classLabel": "f"}
{"compound": "Cc1ncc(OC[C@@]2(c3cccc(F)c3)C[C@H]2c2nc3ccc(Cl)cc3c(=O)[nH]2)c(C)n1 [Example 311]", "classLabel": "t"}
{"compound": "Cc1ncc(OCC2(c3ccc(Cl)cc3)CC2C(=O)Nc2ccc(C#N)cn2)c(C)n1 (centres unmarked) [Example 159]", "classLabel": "f"}
{"compound": "Cc1ncc(OC[C@@]2(c3ccccc3)C[C@H]2C(=O)Nc2cc(Cl)cc(C#N)c2)c(C)n1 [Example 35]", "classLabel": "f"}
{"compound": "Cc1ncc(OC[C@@]2(c3ccc(F)c(F)c3)C[C@H]2C(=O)Nc2ccc(F)cc2)c(C)n1 [Example 165]", "classLabel": "t"}
{"compound": "COCc1nc(C)ncc1OC[C@@]1(c2ccccc2)C[C@H]1C(=O)Nc1nc(C)cs1 [Example 142]", "classLabel": "f"}

* * *

# targetOrTestSystem: UniProt O43614
# procedureText: Measurement of orexin receptor-binding ability ([125I]-OX-A, cell membranes, OX2)
# Parameters: expressed in transfected cells; host or cells: CHO cells (membrane preparation)
# conditionSet: membranes of recombinant CHO cells expressing OX2, 0.2 nM [125I]-OX-A; read-out: OX2 (IC50)
pIC50: −log10 of the molar value.
Documented pIC50 across a set of molecules
measurementKind: pIC50

{"molecule": "CCc1nc(C)ncc1OC[C@@]1(c2ccccc2)C[C@H]1C(=O)Nc1cncc(OC)c1 [Example 123]", "quantitativeResult": 7.54}
{"molecule": "CCc1nc(C)ncc1OC[C@@]1(c2ccccc2)C[C@H]1C(=O)Nc1ccccn1", "quantitativeResult": 7.62}
{"molecule": "COc1cc(NC(=O)[C@@H]2C[C@@]2(COc2cnc(C)nc2C)c2ccccc2)ncc1F", "quantitativeResult": 8.24}
{"molecule": "Cc1ncc(OC[C@@]2(c3ccccc3)C[C@H]2C(=O)Nc2cnc(F)c(C)c2)c(C)n1", "quantitativeResult": 7.46}
{"molecule": "Cc1ncc(OC[C@@]2(c3ccccc3)C[C@H]2C(=O)Nc2ccc3c(c2)N(C)C(=O)CO3)c(C)n1", "quantitativeResult": 7.77}
{"molecule": "Cc1ncc(OC[C@@]2(c3ccccc3)C[C@H]2C(=O)Nc2ccc(Cl)c(C#N)c2)c(C)n1", "quantitativeResult": 7.82}
{"molecule": "Cc1ncc(OC[C@@]2(c3cc(F)cc(F)c3)C[C@H]2C(=O)Nc2ccc(F)cc2)c(C)n1", "quantitativeResult": 8.40}
{"molecule": "CCc1nc(C)ncc1OC[C@@]1(c2ccc(F)cc2)C[C@H]1C(=O)Nc1cc(Cl)ccn1", "quantitativeResult": 8.52}

* * *

# targetOrTestSystem: OX2 (Homo sapiens, UniProt O43614)
# Sequence (O43614 whole entry): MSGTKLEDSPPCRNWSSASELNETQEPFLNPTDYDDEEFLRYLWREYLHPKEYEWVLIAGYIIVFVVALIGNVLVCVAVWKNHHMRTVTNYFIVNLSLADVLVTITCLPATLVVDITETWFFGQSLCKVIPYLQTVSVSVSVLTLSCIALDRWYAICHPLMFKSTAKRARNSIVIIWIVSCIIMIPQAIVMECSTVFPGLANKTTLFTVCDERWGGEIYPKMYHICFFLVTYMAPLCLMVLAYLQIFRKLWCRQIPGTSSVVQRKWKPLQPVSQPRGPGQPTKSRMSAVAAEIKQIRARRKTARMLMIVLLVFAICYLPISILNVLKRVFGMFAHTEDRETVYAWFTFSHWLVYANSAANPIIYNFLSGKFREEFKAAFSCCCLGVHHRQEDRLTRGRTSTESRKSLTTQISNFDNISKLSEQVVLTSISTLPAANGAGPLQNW
# procedureText: Measurement of orexin receptor-binding ability ([125I]-OX-A, cell membranes, OX2)
# Set-up: expressed in transfected cells; host or cells: CHO cells (membrane preparation)
# conditionSet: OX2 (IC50) nM, membranes of recombinant CHO cells expressing OX2, 0.2 nM [125I]-OX-A

{"molecule": "Cc1ncc(OC[C@@]2(c3cccc(F)c3)C[C@H]2C(=O)Nc2ccc(F)cc2)c(C)n1", "IC50, nM": 8}
{"molecule": "Cc1ncc(OC[C@@]2(c3cccc(F)c3)C[C@H]2C(=O)Nc2ccc(Br)cn2)c(C)n1", "IC50, nM": 3.2}
{"molecule": "Cc1ncc(OCC2(c3cc(F)ccc3F)CC2C(=O)Nc2ccc(F)cn2)c(C)n1 (centres unmarked)", "IC50, nM": 10}
{"molecule": "COc1ccc([C@]2(COc3cnc(C)nc3C)C[C@H]2C(=O)Nc2ccc(F)cn2)cc1F", "IC50, nM": 7}
{"molecule": "COCc1nc(C)ncc1OC[C@@]1(c2ccc(F)c(F)c2)C[C@H]1C(=O)Nc1ccccn1", "IC50, nM": 4}
{"molecule": "Cc1ncc(OC[C@@]2(c3cccs3)C[C@H]2C(=O)Nc2ccc(F)cn2)c(C)n1", "IC50, nM": 36}
{"molecule": "Cc1ncc(OC[C@@]2(c3ccccc3)C[C@H]2C(=O)Nc2cccc(F)c2)c(C)n1", "IC50, nM": 26}
{"molecule": "COc1cc([C@]2(COc3cnc(C)nc3C)C[C@H]2C(=O)Nc2ccc(F)cn2)ccc1F", "IC50, nM": 173}

Data provenance: patent US8268848B2
